Molecular target: mPSF (CPSF160-WDR33-CPSF30-Fip1) (human, UniProt Q10570;Q9C0J8;O95639-2;Q6UN15 1-1443;1-572;1-244;1-594)
Sequence (Q10570 whole entry, chain 1 of 4): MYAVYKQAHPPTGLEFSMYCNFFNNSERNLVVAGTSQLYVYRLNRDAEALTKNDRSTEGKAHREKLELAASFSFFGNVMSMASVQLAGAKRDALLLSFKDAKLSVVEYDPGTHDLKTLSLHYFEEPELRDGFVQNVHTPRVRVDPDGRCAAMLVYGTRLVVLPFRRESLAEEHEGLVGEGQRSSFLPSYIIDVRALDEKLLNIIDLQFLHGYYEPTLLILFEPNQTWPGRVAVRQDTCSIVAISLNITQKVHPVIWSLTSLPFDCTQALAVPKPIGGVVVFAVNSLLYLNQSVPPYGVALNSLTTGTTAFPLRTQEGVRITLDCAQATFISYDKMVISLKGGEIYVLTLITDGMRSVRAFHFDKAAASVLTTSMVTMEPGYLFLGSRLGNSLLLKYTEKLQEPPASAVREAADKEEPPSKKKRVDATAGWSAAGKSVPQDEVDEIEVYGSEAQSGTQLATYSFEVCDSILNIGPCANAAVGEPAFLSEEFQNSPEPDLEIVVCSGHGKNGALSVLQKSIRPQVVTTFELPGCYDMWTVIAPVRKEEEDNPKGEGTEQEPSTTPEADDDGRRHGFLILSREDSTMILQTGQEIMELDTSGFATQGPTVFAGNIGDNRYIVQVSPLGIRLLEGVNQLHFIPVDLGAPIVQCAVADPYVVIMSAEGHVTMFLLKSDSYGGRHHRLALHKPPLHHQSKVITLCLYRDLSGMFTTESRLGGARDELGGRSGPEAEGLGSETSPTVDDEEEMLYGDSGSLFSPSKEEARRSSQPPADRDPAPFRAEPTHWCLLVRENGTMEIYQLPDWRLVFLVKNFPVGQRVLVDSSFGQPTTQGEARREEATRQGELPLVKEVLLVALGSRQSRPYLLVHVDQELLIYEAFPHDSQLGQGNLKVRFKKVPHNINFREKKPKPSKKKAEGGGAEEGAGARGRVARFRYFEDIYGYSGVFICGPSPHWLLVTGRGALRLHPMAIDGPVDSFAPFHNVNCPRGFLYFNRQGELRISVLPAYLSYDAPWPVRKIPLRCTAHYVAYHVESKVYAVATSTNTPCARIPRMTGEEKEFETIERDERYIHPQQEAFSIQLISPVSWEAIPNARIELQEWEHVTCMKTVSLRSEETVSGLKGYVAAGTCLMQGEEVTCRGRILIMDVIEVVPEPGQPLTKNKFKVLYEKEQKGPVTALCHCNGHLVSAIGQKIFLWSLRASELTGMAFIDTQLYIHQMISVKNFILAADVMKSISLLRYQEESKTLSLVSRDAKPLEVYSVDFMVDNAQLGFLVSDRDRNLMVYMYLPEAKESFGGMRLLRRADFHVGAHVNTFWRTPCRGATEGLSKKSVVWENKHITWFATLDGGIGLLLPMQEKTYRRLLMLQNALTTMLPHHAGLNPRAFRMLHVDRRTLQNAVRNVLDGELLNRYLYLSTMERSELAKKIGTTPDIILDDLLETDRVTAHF
Sequence (Q9C0J8 1-572, chain 2 of 4): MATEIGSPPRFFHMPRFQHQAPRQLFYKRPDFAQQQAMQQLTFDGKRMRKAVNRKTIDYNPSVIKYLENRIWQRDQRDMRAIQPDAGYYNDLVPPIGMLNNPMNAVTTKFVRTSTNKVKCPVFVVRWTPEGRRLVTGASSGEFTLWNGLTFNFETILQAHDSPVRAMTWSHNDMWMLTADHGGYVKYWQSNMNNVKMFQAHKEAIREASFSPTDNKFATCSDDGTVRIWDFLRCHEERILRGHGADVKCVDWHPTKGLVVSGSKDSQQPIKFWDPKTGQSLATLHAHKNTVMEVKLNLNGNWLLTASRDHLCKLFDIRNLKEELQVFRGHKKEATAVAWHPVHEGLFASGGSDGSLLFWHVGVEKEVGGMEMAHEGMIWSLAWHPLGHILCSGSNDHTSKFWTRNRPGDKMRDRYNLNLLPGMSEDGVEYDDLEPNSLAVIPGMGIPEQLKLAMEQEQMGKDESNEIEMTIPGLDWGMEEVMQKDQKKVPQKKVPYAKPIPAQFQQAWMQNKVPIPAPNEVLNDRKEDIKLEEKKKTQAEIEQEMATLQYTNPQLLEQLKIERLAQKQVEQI
Sequence (O95639 other isoform, or with tags, fused parts or gaps, chain 3 of 4): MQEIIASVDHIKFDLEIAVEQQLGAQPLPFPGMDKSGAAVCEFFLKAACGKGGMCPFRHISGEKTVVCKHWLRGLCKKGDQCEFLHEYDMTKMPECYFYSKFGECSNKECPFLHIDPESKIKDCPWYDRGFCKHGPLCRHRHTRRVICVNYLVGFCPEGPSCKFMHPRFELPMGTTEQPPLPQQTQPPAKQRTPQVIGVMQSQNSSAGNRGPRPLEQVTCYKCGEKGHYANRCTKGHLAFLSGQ
Sequence (Q6UN15 whole entry, chain 4 of 4): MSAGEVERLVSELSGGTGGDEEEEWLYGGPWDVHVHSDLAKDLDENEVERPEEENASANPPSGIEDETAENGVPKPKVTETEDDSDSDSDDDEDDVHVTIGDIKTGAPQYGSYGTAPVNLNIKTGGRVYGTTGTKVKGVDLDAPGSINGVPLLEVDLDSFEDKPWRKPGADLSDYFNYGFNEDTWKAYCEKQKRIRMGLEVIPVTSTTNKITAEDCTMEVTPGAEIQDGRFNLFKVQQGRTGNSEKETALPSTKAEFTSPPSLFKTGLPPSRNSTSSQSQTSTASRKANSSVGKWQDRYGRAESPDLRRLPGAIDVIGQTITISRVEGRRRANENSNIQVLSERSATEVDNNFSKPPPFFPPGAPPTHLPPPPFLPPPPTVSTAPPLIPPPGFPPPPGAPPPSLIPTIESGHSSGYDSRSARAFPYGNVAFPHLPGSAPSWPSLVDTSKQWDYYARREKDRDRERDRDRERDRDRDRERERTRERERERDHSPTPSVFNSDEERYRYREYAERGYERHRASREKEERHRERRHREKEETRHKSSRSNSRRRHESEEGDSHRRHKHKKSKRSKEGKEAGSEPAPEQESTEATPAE
Assay: competition fluorescence anisotropy; vs FAM-AAUAAA; 20 mM Tris pH 8.0, 150 mM NaCl, 10 mM DTT, 100 nM BSA, 0.01% NP-40; 45 min on ice, read at room temperature; triplicates
Details: protein: recombinant; copies: 1;1;1;1
pKd: −log10 of the molar value.
Measured Property: pKd

[[record]]
binder = "UGCGAUAAACAA (ssRNA) [GAUAAA 12-mer]"
numeric_value = 6.24

[[record]]
binder = "UGCAAGAAACAA (ssRNA) [AAGAAA 12-mer]"
numeric_value = 5.73

[[record]]
binder = "UGCAUUAUACAA (ssRNA) [AUUAUA 12-mer]"
numeric_value = 5.67

[[record]]
binder = "UGCAAUGAACAA (ssRNA) [AAUGAA 12-mer]"
numeric_value = 5.93

[[record]]
binder = "UGCCAUAAACAA (ssRNA) [CAUAAA 12-mer]"
numeric_value = 6.11


Source listed as paper PMC12421377.
